# interaction score listing for each entry below
TEST TARGET: T1, 4H629-AA
T1 chain: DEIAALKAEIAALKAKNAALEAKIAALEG
ASSAY METHOD TEXT: two-hybrid library CCmax;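 also: natural log of median RNA to DNA barcode read ratio; higher means stronger binding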
TEST CONDITIONS: mean of both orientations
API doc: respond with a numeric literal and nothing else, no unit.

Solved cases below.
BINDER	interaction score
DEIAALEAKNAALKAKIAALEAKIAALEG [4H485-AA]	-1.15
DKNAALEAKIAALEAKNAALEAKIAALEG [4H3381-AA]	-1.4
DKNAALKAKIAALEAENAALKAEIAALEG [4H3865-AA]	-1.62
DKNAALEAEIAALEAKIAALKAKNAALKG [4H3120-AA]	-1.66
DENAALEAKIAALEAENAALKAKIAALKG [4H1310-AA]	-1.49
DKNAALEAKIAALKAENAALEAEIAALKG [4H3410-AA]	-1.53
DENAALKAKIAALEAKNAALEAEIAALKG [4H1842-AA]	-1.59
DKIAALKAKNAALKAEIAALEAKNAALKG [4H3016-AA]	-1.28
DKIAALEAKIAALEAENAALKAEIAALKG [4H2330-AA]	-1.21

Field: next binder
Please give measured interaction score of the following entry: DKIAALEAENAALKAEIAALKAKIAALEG [4H2253-AA]
-1.74
